Catalogue of compounds with associated % assay/degs
type: physicochemical; settings: pH 3.5; T = 0
Numbers only here, please. The scale is %.

N#C[C@@]1(c2ccc3c(N)ncnn23)O[C@H](CO)[C@@H](O)[C@H]1O
0.02
CCC(CC)COC(=O)[C@H](C)N[P@](=O)(OC[C@H]1O[C@@](C(N)=O)(c2ccc3c(N)ncnn23)[C@H](O)[C@@H]1O)Oc1ccccc1
0.05

Per the record, "N#C[C@@]1(c2ccc3c(N)ncnn23)O[C@H](COP(=O)(O)Oc2ccccc2)[C@@H](O)[C@H]1O" has % assay/degs of 0.02

Per the record, "CCC(CC)COC(=O)[C@H](C)N[P@](=O)(OC[C@H]1O[C@@](C#N)(c2ccc3c(N)ncnn23)[C@H](O)[C@@H]1O)Oc1ccccc1" has % assay/degs of 99.1

====

assay: Plasma PK of Formula Ia and metabolites after inhalation in African Green Monkeys; conditions: both, monkey, in vivo, 0.536 mg/kg
ENDPOINT_LABEL: concentration at 24 h (nM)
Numbers only here, please. The scale is nM.

Per the record, "N#C[C@@]1(c2ccc3c(N)ncnn23)O[C@H](CO)[C@@H](O)[C@H]1O" has concentration at 24 h of 5

====

assay type: physicochemical; settings: pH 1.8; T = 0
ENDPOINT_LABEL: % assay/degs (%)
Numbers only here, please. The scale is %.

CCC(CC)COC(=O)[C@H](C)N[P@](=O)(OC[C@H]1O[C@@](C#N)(c2ccc3c(N)ncnn23)[C@H](O)[C@@H]1O)Oc1ccccc1
99.4

Per the record, "N#C[C@@]1(c2ccc3c(N)ncnn23)O[C@H](CO)[C@@H](O)[C@H]1O" has % assay/degs of 0.02

Per the record, "CCC(CC)COC(=O)[C@H](C)N[P@](=O)(OC[C@H]1O[C@@](C(N)=O)(c2ccc3c(N)ncnn23)[C@H](O)[C@@H]1O)Oc1ccccc1" has % assay/degs of 0.05

Per the record, "N#C[C@@]1(c2ccc3c(N)ncnn23)O[C@H](COP(=O)(O)Oc2ccccc2)[C@@H](O)[C@H]1O" has % assay/degs of 0.08

====

assay: Plasma PK of Formula Ia and metabolites after inhalation in African Green Monkeys; conditions: both, monkey, in vivo, 0.536 mg/kg
ENDPOINT_LABEL: concentration at 0.75 h (nM)
Numbers only here, please. The scale is nM.

Per the record, "N#C[C@@]1(c2ccc3c(N)ncnn23)O[C@H](CO)[C@@H](O)[C@H]1O" has concentration at 0.75 h of 29

====

Catalogue of compounds with associated % assay/degs, difference from T = 0
assay type: physicochemical; settings: pH 3.5; Ambient; 24 h
Numbers only here, please. The scale is %.

Known % assay/degs, difference from T = 0 results, listed for orientation:
N#C[C@@]1(c2ccc3c(N)ncnn23)O[C@H](CO)[C@@H](O)[C@H]1O [Compound A]
0.00
CCC(CC)COC(=O)[C@H](C)N[P@](=O)(OC[C@H]1O[C@@](C#N)(c2ccc3c(N)ncnn23)[C@H](O)[C@@H]1O)Oc1ccccc1 [Formula Ia]
0.6
CCC(CC)COC(=O)[C@H](C)N[P@](=O)(OC[C@H]1O[C@@](C(N)=O)(c2ccc3c(N)ncnn23)[C@H](O)[C@@H]1O)Oc1ccccc1 [Compound G]
0.00

Per the record, N#C[C@@]1(c2ccc3c(N)ncnn23)O[C@H](COP(=O)(O)Oc2ccccc2)[C@@H](O)[C@H]1O [Compound F] has % assay/degs, difference from T = 0 of 0.03
